B1: glmS ribozyme (parent)
chain: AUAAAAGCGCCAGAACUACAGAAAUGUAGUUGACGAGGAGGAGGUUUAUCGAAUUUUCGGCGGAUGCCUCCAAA

variants of: B1; assay: self-cleavage kobs at 40 uM GlcN6P; higher = faster cleavage; RNA array; conditions: with glucosamine-6-phosphate
Fewer inactive variants are shown than the library holds.
Below: a set of entries, each annotated with reported self-cleavage kobs at 40 uM GlcN6P.

{"columns": ["variant", "readout_kind", "result"],
 "data": [
  ["A6G G7C C16A G41U", "self-cleavage kobs at 40 uM GlcN6P", "< 1e-05 s⁻¹"],
  ["C8U U30G A36G C68U", "self-cleavage kobs at 40 uM GlcN6P", "< 1e-05 s⁻¹"],
  ["G35U A48U", "self-cleavage kobs at 40 uM GlcN6P", "< 1e-05 s⁻¹"],
  ["U46G U65A", "self-cleavage kobs at 40 uM GlcN6P", "8.18e-05 s⁻¹"],
  ["C8A U30A A48G", "self-cleavage kobs at 40 uM GlcN6P", "< 1e-05 s⁻¹"]
]}

Item under review: A36U C50G U69C . Reported self-cleavage kobs at 40 uM GlcN6P?
0.000561 s⁻¹

Item under review: C16G G35C . Reported self-cleavage kobs at 40 uM GlcN6P?
< 1e-05 s⁻¹

Item under review: A39U U65G . Reported self-cleavage kobs at 40 uM GlcN6P?
6.84e-05 s⁻¹

Item under review: U45G C50U A64G . Reported self-cleavage kobs at 40 uM GlcN6P?
< 1e-05 s⁻¹
